biological target: GST tagged LXRalpha LBD (ligand binding domain) (Homo sapiens); experiment: LanthaScreen TR-FRET Liver X Receptor Coactivator Assay, LXR alpha-LBD; details: Inflection Point (potency), co-activator recruitment, relative to reference T0901317; read-out: LXR alpha IP
Sequence (Q13133 209-447 limits assumed): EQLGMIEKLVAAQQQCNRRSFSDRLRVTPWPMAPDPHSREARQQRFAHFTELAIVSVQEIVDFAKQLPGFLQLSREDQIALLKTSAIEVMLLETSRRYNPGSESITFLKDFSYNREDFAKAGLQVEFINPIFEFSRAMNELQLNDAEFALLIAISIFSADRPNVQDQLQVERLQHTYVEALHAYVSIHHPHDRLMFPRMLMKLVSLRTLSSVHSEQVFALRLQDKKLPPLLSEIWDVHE
Assay Readout: EC50 (nM)

Use the examples below as a reference point.
CCN(C)C(=O)c1ccc(N2CCC(C3CCN(C(=O)[C@](O)(c4ccccc4)C(F)(F)F)CC3)CC2)cc1Cl [Example E-60]: 1850
CN(C)C(=O)c1ccc(N2CCC(C3CCN(C(=O)C(C)(C)c4ccccc4F)CC3)CC2)cc1Cl [Example A-80]: 1170
O=C(c1ccc(N2CCC(C3CCN(C(=O)[C@](O)(c4ccccc4)C(F)(F)C(F)(F)F)CC3)CC2)cc1Cl)N1CCCC1 [Example E-17]: 760
COc1ccccc1C(O)(C(=O)N1CCC(C2CCN(c3ccc(C(=O)N(C)C)c(Cl)c3)CC2)CC1)C(F)(F)F (stereo not drawn) [Example A-97]: 2430
COC(=O)c1ccc(N2CCC(C3CCN(C(=O)OC(C)(C)C)CC3)CC2)nc1Cl [Example E-1]: 857
CC(C)C(O)(C(=O)N1CCC(C2CCN(c3ccc(C(=O)N4CC(F)(F)C4)c(Cl)c3)CC2)CC1)C(F)(F)F (stereo not drawn) [Example E-3]: 127
CN(C)C(=O)c1ccc(N2CCC(C3CCN(C(=O)c4c(F)cccc4Cl)CC3)CC2)cc1Cl [Example A-24]: 4850
CN(C)C(=O)c1ccc(N2CCC(C3CCN(C(=O)[C@](O)(c4ccccc4)C(F)(F)C(F)(F)F)CC3)CC2)nc1Cl (single isomer, unassigned) [Example B-16]: 1340

[P] CN(C)C(=O)c1ccc(N2CCC(C3CCN(C(=O)C(C)(C)c4ccccc4)CC3)CC2)cc1Cl [Example A-12]
[Q] CC(C)C(O)(C(=O)N1CCC(C2CCN(c3ccc(C(=O)N4CCOC[C@H]4C)c(Cl)c3)CC2)CC1)C(F)(F)F (stereo partly drawn) [Example E-10]
[R] CC(C)(C)OC(=O)NC1CN(C(=O)c2ccc(N3CCC(C4CCN(C(=O)OC(C)(C)C)CC4)CC3)cc2Cl)C1 [Example E-68]
[S] O=C(c1ccc(N2CCC(C3CCN(C(=O)[C@](O)(c4ccccc4)C(F)(F)F)CC3)CC2)cc1Cl)N1CC(O)C1 [Example E-36]
[T] CC(C)(C)OC(=O)NC1CN(C(=O)c2ccc(N3CCC(C4CCN(C(=O)[C@](O)(c5ccccc5)C(F)(F)C(F)(F)F)CC4)CC3)cc2Cl)C1 [Example E-65]
Problem: Please list the entries, largest EC50 first. Sort the labels as requested; that list is your answer.
Solution: S, P, Q, T, R
(S: 3820 nM, P: 2460 nM, Q: 1260 nM, T: 635 nM, R: 367 nM)
